B1: OR4K15 (parent)
chain: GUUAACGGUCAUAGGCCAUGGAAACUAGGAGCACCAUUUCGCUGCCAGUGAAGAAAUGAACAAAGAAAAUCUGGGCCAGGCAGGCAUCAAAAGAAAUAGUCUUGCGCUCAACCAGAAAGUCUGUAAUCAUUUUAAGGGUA

- Variants of: B1
- experimental protocol: self-cleavage, relative activity (ratio to wild type); higher = more cleavage; in vitro, sequencing; the parent is a self-cleaving ribozyme
Label fulfilled for high-side self-cleavage (at or above 1) and not fulfilled for low-side self-cleavage (below it).

U49C U124C :: not fulfilled
U43A U102C :: fulfilled
A52G A78G :: not fulfilled
A56G A89U :: fulfilled
A11G G41A :: not fulfilled
A23G A89G :: fulfilled
A18U U120C :: fulfilled
U37C A52G :: fulfilled
U102C C113U :: not fulfilled
U43A A98C :: fulfilled
A33C A69G :: fulfilled
U97C A116U :: not fulfilled
A33C A66U :: fulfilled
A114G G123A :: not fulfilled
A30G U130G :: fulfilled
U19A C109U :: not fulfilled
A51U A55U :: fulfilled
A66G A67G :: fulfilled
A129G U133C :: fulfilled
C17U A117G :: fulfilled
A24G U127C :: not fulfilled
G44A A63G :: not fulfilled
U87C G123C :: fulfilled
A13U U43C :: fulfilled
U12C G84C :: not fulfilled
A69G A129G :: not fulfilled
A62U A67C :: fulfilled
U57A A59U :: fulfilled
U37C A66G :: fulfilled
U19C A55C :: fulfilled
A30G A56G :: fulfilled
A13G U139A :: fulfilled
A66C U100C :: fulfilled
A36C U131C :: fulfilled
A30U A60G :: not fulfilled
A92G U103A :: not fulfilled
U120C A125G :: not fulfilled
A27G A33G :: not fulfilled
U19C A118C :: fulfilled
U43A A60G :: fulfilled
C81U U122C :: not fulfilled
U102C A129U :: fulfilled
U9C U132C :: fulfilled
U19C U108A :: not fulfilled
G74A A117U :: not fulfilled
G93A U102A :: fulfilled
